System: Monochoria vaginalis, Presl.
Experiment: Preemergence weed control under flooded paddy conditions, MOOVA (Monochoria)
Type: in vivo
Settings: 0.0320 kg/ha; preemergence weeds, flooded paddy; herbicidal effect rating 0-9, three to four weeks after treatment
Listed here are compounds together with their documented MOOVA.
endpoint: MOOVA

1) COc1ccc(CC(=O)OCc2nsc3ccc(-n4c(=O)cc(C(F)(F)F)n(C)c4=O)cc23)cc1 ... 7.0
2) Cn1c(C(F)(F)F)cc(=O)n(-c2ccc3snc(C(Br)S(=O)(=O)c4ccccc4)c3c2)c1=O (stereo not shown) ... 6.0
3) CCSC(=O)c1nsc2ccc(-n3c(=O)cc(C(F)(F)F)n(C)c3=O)cc12 ... 7.0
4) CCOCN(C(=O)c1nsc2ccc(-n3c(=O)cc(C(F)(F)F)n(C)c3=O)cc12)S(=O)(=O)Cc1ccccc1 ... 7.0
5) CC(Cl)c1nsc2ccc(-n3c(=O)cc(C(F)(F)F)n(C)c3=O)cc12 (stereo not shown) ... 7.0
6) Cc1ccc(OCC(=O)N(C)S(C)(=O)=O)c(-c2nsc3ccc(-n4c(=O)cc(C(F)(F)F)n(C)c4=O)cc23)c1 ... 9.0
7) CCC(C#N)(CC)c1nsc2ccc(-n3c(=O)cc(C(F)(F)F)n(C)c3=O)cc12 ... 9.0

###

Tested on: Cyperus iria
Experiment: Preemergence weed control under flooded paddy conditions, CYPIR (Rice Flatsedge); further: meaning of each grade not given here
Assay type: in vivo
Conditions: 0.1250 kg/ha; preemergence, flooded paddy; rated three to four weeks after treatment
endpoint: herbicidal effect rating, CYPIR

1) COc1ccc(C)cc1-c1nsc2ccc(-n3c(=O)cc(C(F)(F)F)n(C)c3=O)cc12 ... 9.0
2) Cn1c(C(F)(F)F)cc(=O)n(-c2ccc3onc(-c4ccccc4)c3c2)c1=O ... 9.0
3) Cc1ccc(OCC(=O)OCCN(C)C)c(-c2nsc3ccc(-n4c(=O)cc(C(F)(F)F)n(C)c4=O)cc23)c1 ... 9.0
4) COC(=O)COc1ccc(C)cc1-c1nsc2ccc(-n3c(=O)cc(C)n(C)c3=O)cc12 ... 0.0
5) COC(=O)COc1c(C)cc(C)cc1-c1nsc2ccc(-n3c(=O)cc(C(F)(F)F)n(C)c3=O)cc12 ... 9.0
6) C=CCOC(=O)COc1ccc(C)cc1-c1nsc2ccc(-n3c(=O)cc(C(F)(F)F)n(C)c3=O)cc12 ... 4.0
7) Cc1ccc(OCC#N)c(-c2nsc3ccc(-n4c(=O)cc(C(F)(F)F)n(C)c4=O)cc23)c1 ... 9.0
8) COCc1nsc2ccc(-n3c(=O)cc(C(F)(F)F)n(C)c3=O)cc12 ... 9.0

###

ECHORC for assorted compounds
System: Echinochloa oryzoides (Ard.) Fritsch.
Assay: Preemergence weed control under flooded paddy conditions, ECHORC (Watergrass (Calif.))
Format: in vivo
Conditions: 0.0620 kg/ha; preemergence weeds, flooded paddy; herbicidal effect rating 0-9, three to four weeks after treatment
endpoint: ECHORC

1. CC(c1ccccc1)S(=O)(=O)NC(=O)c1nsc2ccc(-n3c(=O)cc(C(F)(F)F)n(C)c3=O)cc12 (stereo not shown) [Example 427] ... 7.0
2. Cn1c(C(F)(F)F)cc(=O)n(-c2ccc3snc(C(=O)NS(=O)(=O)Cc4ccc(OC(F)(F)F)cc4)c3c2)c1=O [Example 406] ... 6.0
3. CN(Cc1ccc(Cl)cc1)S(=O)(=O)NC(=O)c1nsc2ccc(-n3c(=O)cc(C(F)(F)F)n(C)c3=O)cc12 [Example 420] ... 7.0
4. C#CCOC(=O)COc1cc2c(cc1-c1nsc3ccc(-n4c(=O)cc(C(F)(F)F)n(C)c4=O)cc13)CCC2 [Example 436] ... 9.0
